Hello, the source for this data is a melting point compilation (Tetko et al.), in case you need it.

readoutKind: melting point

Nc1ccc2scnc2c1: 55 to 59 °C
O=C1NC2CCCC12 (stereo unspecified): 45 to 50 °C
CSC(=CC(=C(C#N)C#N)c1ccc(Br)cc1)SC: 138 to 142 °C
CC(=O)c1csc2ccc(Br)cc12: 87 to 90 °C
CCC(C=O)(CC)CCC#N: 97 °C
O=C(CCl)Nc1ccc(Oc2ccccc2)cc1: 104 to 106 °C
CON(C)C(=O)Nc1ccc(Oc2ccc3c(c2)OC(C)(OC)CC3(C)C)cc1 (stereo unspecified): 102 °C
O=[N+]([O-])c1ccc(SCCO)cc1: 60 to 61 °C
CN1N=C2c3ccccc3CCC2C1c1ccc(Cl)cc1 (stereo unspecified): 199 to 201 °C
COc1ccc2nsnc2c1: 82 to 83 °C
O=C=Nc1ccc(Oc2ccc(N=C=O)cc2)cc1: 62 to 66 °C

---

readoutKind: melting point

Nc1cccc(-c2cnco2)c1: 92 to 95 °C
O=C(O)C1C2CCC(C2)C1C(=O)c1ccccc1 (configuration not stated): 180 to 183 °C
O=C1C(=O)c2c3ccccc3cc3cccc1c23: 268 to 270 °C
c1ccc(COc2ccc3ccccc3c2)cc1: 97 °C
BrCc1sc(-c2ccccc2)nc1-c1ccccc1: 112 to 114 °C
CNC(=C[N+](=O)[O-])NCCSCc1csc(CN(C)C)n1: 203 °C
NC(=NO)c1ccccc1OC(F)(F)F: 99 to 101 °C

---

readoutKind: melting point

Nc1c(C(=O)O)cccc1C(F)(F)F: 157 to 160 °C
CN(N)c1ccc(C(F)(F)F)cn1: 52 to 55 °C
Oc1ccccc1N=CC=Nc1ccccc1O: 201 to 205 °C
Cc1nc(-c2ccc(CO)s2)cs1: 67 to 69 °C
O=C(O)Cn1ccnc1: 258 to 260 °C
N#Cc1cc(-c2ccccc2)oc1N: 196 to 197 °C
CC12CCC3C(CCC4=CC(=O)CCC43C)C1CCC2=O (configuration not stated): 170 to 171 °C
CC(=O)OC[C@@H](OC(C)=O)[C@H](OC(C)=O)[C@H](OC(C)=O)[C@@H](OC(C)=O)C(=O)CBr: 123 to 125 °C
FC(F)(F)c1ccc(=S)[nH]c1: 159 to 160 °C
COc1ccc(CNc2ccc([N+](=O)[O-])c3nonc23)cc1: 176 to 180 °C
OCc1csc2ccc(Cl)cc12: 93 to 94 °C
Oc1ccc(Cl)c2ccccc12: 117 to 120 °C
O=C(O)c1c[nH]c(=O)c(Cl)c1: 284 to 286 °C
O=C(O)c1ccccc1CSc1ccccc1: 109 to 113 °C
COC(=O)c1cc(Cl)nc(Cl)c1: 82 to 83 °C
CC1(C)Nc2cccc3c(N=Nc4ccc(N=Nc5ccccc5)c5ccccc45)ccc(c23)N1: 120 to 124 °C
CSCCC(NC(=O)c1ccccc1)C(=O)O (racemic): 150 to 154 °C
CCOC(=O)c1ccc(-c2ccccc2)cc1: 49 °C
CCOC(=O)OC(=O)C1=CC(C)(C)N(O)C1(C)C: 64 to 65 °C
N#CCc1ccc(Oc2ccc([N+](=O)[O-])cn2)cc1: 118 to 119 °C
CCN(CC)CC(=O)Nc1sc2c(c1C#N)CCCC2: 170 to 171 °C
C=CCN=C=S: -80 °C
